Task for the reader: assign each of the following compounds its reported GI50.
# Test system: MDA-MB-231
# Test protocol: NCI tumour cell line growth inhibition, 48 h
Calls of active or inactive are those of the source. Rule as the data show it: active = GI50 up to about 1.1 µM and inactive = higher.

Query: GI50; subject: `Cc1cc2c(-c3ccccc3)cc(=O)[nH]c2cc1N`
> 100 µM (inactive)

Report GI50 for `Nc1nc2ccc(Sc3ccc4nc(N)[nH]c(=O)c4c3)cc2c(=O)[nH]1` please.
67.3 µM (inactive)

Please look up its GI50: `CC1=Nn2c(nc3sc4c(c3c2=O)CCCC4)SC1`
> 50.4 µM (inactive)

Give the measured GI50 of Cc1ccc(C2NC(=O)c3ccccc3N2)c(C)c1 (stereo not given) .
7.4 µM (inactive)

Can you share its GI50? I mean this compound: `Cc1ncc(C/N=C/c2ccc(Cl)cc2)c(N)n1`
> 100 µM (inactive)

Can you share its GI50? I mean this compound: `CCCCCCCCCCCCCCC[C@@H](O)C[N+](C)(C)CCO`
1.8 µM (inactive)

Look at this compound and give its reported GI50. `COCc1nc2c(OC)c(-c3nc4ccc(N5CCN(C)CC5)nc4[nH]3)cc(OC)c2n1C`
17.7 µM (inactive)

Reported GI50 for `Nc1cccc(OCc2nc(N)nc(N)c2-c2ccc(Cl)cc2)c1` : what is it?
> 100 µM (inactive)

What value of GI50 has been reported for the following compound? `Cc1ccc(C(=O)N/N=C(\N=N\c2ccccc2C(=O)O)c2ccc(N(C)C)cc2)cc1`
> 100 µM (inactive)

Entry under review: `CN(C)CCCN1c2ccc([N+](=O)[O-])cc2CCc2cc([N+](=O)[O-])ccc21` . Reported GI50?
15.9 µM (inactive)

Fill blank: measured GI50 of the compound `Cc1cc2nc3c(C#N)c(-c4ccccc4)cc(Nc4ccc(Cl)cc4)n3c2cc1C` is ____.
> 100 µM (inactive)

For the compound `O=C1/C(=C/c2cccc(Br)c2)CCc2ccccc21` , what GI50 is on record?
20.4 µM (inactive)

Which GI50 is listed for COc1cc(Br)c(CC2C3=C(CCN2C(=O)C2CCC2)CC(=O)CC3)cc1O (stereo not given) ?
26.5 µM (inactive)

Can you share its GI50? I mean this compound: `CC(/C=N/N(C)C1=NCCCN1)=N/N(C)C1=NCCCN1`
> 100 µM (inactive)

Look up GI50: Cc1ccccc1OC(C)C(=O)NN1C(=O)CSC1c1ccccc1 (stereo not given)
> 100 µM (inactive)

Entry under review: `CCc1nc2cc(/N=N/c3c(O)ccc4ccccc34)ccc2[nH]1` . Reported GI50?
20.7 µM (inactive)

Requested read-out: GI50. Entry: CCOC1SC(SC)=NN1C(=O)C(OC(C)=O)C(OC(C)=O)C(OC(C)=O)C(OC(C)=O)C(=O)N1N=C(SC)SC1OCC (stereo not given)
> 100 µM (inactive)

For the compound `O=C1C(Br)=CC2(C=C1Br)CCNC1=C2C(=O)c2[nH]cnc2C1=O` , what GI50 is on record?
15.8 µM (inactive)

Would you mind telling me what GI50 value was observed for Cc1cc(=O)[nH]c2cc(NC(=O)C(CCCNC(=N)N)NC(=O)OCc3ccccc3)ccc12 (stereo not given) ?
> 100 µM (inactive)

Which value of GI50 has been reported for `O=S(=O)(O)c1ccc2c(/N=N/c3ccc(/N=N/c4ccccc4)cc3)c(O)c(S(=O)(=O)O)cc2c1` in the records?
> 100 µM (inactive)

// lookup GI50 for FC(F)(F)c1ccc2c(c1)nc(-c1ccc(Cl)cc1)n2CC1CCCN2CCCCC12 (stereo not given)
7.33 µM (inactive)

Find the recorded GI50 belonging to COC(=O)CNC(=O)CCC(C)[C@H]1CCC2C3C(C[C@H](OC(C)=O)[C@@]21C)[C@@]1(C)CCC2(C[C@H]1C[C@H]3OC(C)=O)OOC1(CC[C@]3(C)C4C[C@H](OC(C)=O)[C@@]5(C)C(CC[C@@H]5C(C)CCC(=O)NCC(=O)OC)C4[C@H](OC(C)=O)C[C@@H]3C1)OO2 (stereo not given in full) and report it.
1.31 µM (inactive)

# input compound: `Cc1nc2ccccc2[nH]/c1=N/Nc1ccccc1` ; wanted: its GI50
28 µM (inactive)

Item `COc1ccccc1/N=C1\SCCN1C(=S)Nc1ccc(S(=O)(=O)/N=C/N(C)C)cc1` has what recorded GI50?
> 100 µM (inactive)

Bench note: what GI50 did C=CCC1(O)C(=O)OC2C(O)COC21O (stereo not given) show?
> 100 µM (inactive)

Entry under review: `O=C1c2ccccc2C(=O)c2c1ccc1nc3c(nc21)-c1c2ccccc2cc2cccc-3c12` . Reported GI50?
74.1 µM (inactive)

Tell me the measured GI50 of CCOC(=O)CNC(=O)C(CSC(=O)N(O)c1ccc(Br)cc1)NC(=O)CCC(N)C(=O)OCC (stereo not given) , please.
> 50 µM (inactive)

Fill in the blank: the reported GI50 of `O=C1N/C(=N/N=C/c2c[nH]c3ccccc23)N/C1=C\c1c[nH]c2ccccc12` is ____.
20 µM (inactive)

Look up GI50 for this compound: `Cc1c(-c2ccccc2)cc(O)c2nc3ccccc3n12`
5.61 µM (inactive)

Item NC(Cc1c[nH]c2cc([N+](=O)[O-])ccc12)C(=O)O (stereo not given) has what recorded GI50?
> 100 µM (inactive)

Returns the measured GI50 for the input compound. Input: COc1cc2c(cc1OC)-c1c(oc3cc(OC4OC(CO)C(O)C(O)C4O)c(OC)cc3c1=O)C(O)O2 (stereo not given)
> 100 µM (inactive)

What GI50 value was documented for this compound, `C=CCP(=O)(CC=C)C(Cl)Cl` ?
> 100 µM (inactive)

Given the entry O=C(ON=C1c2ccccc2C(Br)C(Br)c2ccccc21)c1ccccc1 (stereo not given) , report its measured GI50.
16.7 µM (inactive)

Which GI50 is listed for COc1ccc2c(c1)CC1Cc3ccccc3CCN1C2 (stereo not given) ?
6.65 µM (inactive)

Suppose we examine the compound COC(OC)C1OC(CO)C(n2cc(F)c(=O)[nH]c2=O)C1O (stereo not given) ; what GI50 value has been reported?
> 100 µM (inactive)

// GI50 lookup, key: COc1ccc(C(OC(C)=O)C2C(=C(C#N)C#N)c3ccccc3C2=C(C#N)C#N)cc1 (stereo not given)
39.5 µM (inactive)

Please give the measured GI50 for this compound: `CN(C)Cc1cc(C(=O)/C=C/c2ccc(Cl)c(Cl)c2)cc(CN(C)C)c1O`
2.68 µM (inactive)

State the recorded GI50 for this entry: C[N+]12CCCCC1C(CN1C(=O)Cc3c4ccccc4c(c4ccccc34)CC1=O)CCC2 (stereo not given)
> 100 µM (inactive)

Need GI50, item CCOC(=O)NC(Nc1ccc(F)cc1)(C(=O)OCC)C(F)(F)F (stereo not given)
> 100 µM (inactive)

# get_value(readout='GI50', item= `CCOP(=O)(OCC)/C(C#N)=C/c1cnc(C)[nH]1` )
> 100 µM (inactive)

Source: ChEMBL document CHEMBL1201862
